Source: patent US20260347364A1

Provide the reported pIC50 of each item.
Target: KRAS G12D (Homo sapiens, UniProt P01116, G12D)
Construct: aa1-188 KRAS WT, HRAS WT, NRAS WT, or KRAS containing the G12D
Sequence (P01116 1-188 isoform P01116-2 G12D): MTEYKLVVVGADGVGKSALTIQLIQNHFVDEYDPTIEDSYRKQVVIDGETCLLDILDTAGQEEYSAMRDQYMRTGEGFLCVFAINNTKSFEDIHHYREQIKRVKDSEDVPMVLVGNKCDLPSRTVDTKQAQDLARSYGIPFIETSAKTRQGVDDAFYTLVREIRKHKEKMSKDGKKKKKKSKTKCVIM
Assay: HTRF nucleotide exchange assay, KRAS G12D
Settings: HTRF nucleotide exchange assay (NEA), class symbols
pIC50: −log10 of the molar value.

What does the data say about its pIC50? Entry: CCc1c(F)ccc2cc(O)cc(-c3cc4nc(OC[C@@]56CCCN5C[C@H](F)C6)nc(N5CCC(CO)CC5)c4c4cn(C)nc34)c12
5.00 to 7.00

What does the data say about its pIC50? Entry: CCc1c(F)ccc2cc(O)cc(-c3cc4nc(OC[C@@]56CCCN5C[C@H](F)C6)nc(N5CCC(C)(O)CC5)c4c4cn(C)nc34)c12
5.00 to 7.00

What does the data say about its pIC50? Entry: CCc1c(F)ccc2cc(O)cc(-c3c(F)c4nc(OCC5(CN6CCC(O)CC6)CC5)nc(N5CCOCC(C)(O)C5)c4c4cn(C)nc34)c12 (stereo not drawn)
≥ 8.00
